Quick reference: growth of the listed items.
System: LOX IMVI melanoma
Test: NCI-60 one-dose screen, 48 h (100 = growth as untreated, 0 = no growth, -100 = all killed)
Settings: 10 µM unless noted
Experimental: Growth inhibition of the LOX IMVI human tumor cell line is measured as a screen for anti-cancer activity. Cells are grown in 96 well plates and exposed to the test compound for 48 hours. Compounds are tested at a single concentration, which is 10^-5 M for most compounds. The reported endpoint is percent growth (GI% or GIPRCNT), where numbers from 0 - 100% represent growth inhibition, and numbers from -100% - 0 represent cell death. For example, a value of 40 represents 60% growth inhibition. […]
Compounds without any hit were thinned out: in the full panel of roughly 83,000, 20% have a hit.
Express the result in % but write the number alone.

Answered cases to consult:
>>> print(df.to_string())
                                   compound    measured_target  value_kind  endpoint_result
0  COc1ccc(-c2cn3ccnc3c(-c3ccc4ncn(C5CCCCC5)c4c3)n2)cc1  LOX IMVI melanoma      growth             30.4
1  COc1ccc(C(=O)NCCNc2nccc(-c3c(-c4ccc(F)cc4)nc4sccn34)n2)cc1  LOX IMVI melanoma      growth             43.3
2     Cc1cc2cn3c4ccc(O)cc4[nH]c(=O)c3c2cc1C  LOX IMVI melanoma      growth             4.61
3  C[C@H]1C[C@@H](n2cnc3c(N)nccc32)[C@H](O)[C@@H]1O  LOX IMVI melanoma      growth             79.8

Data point: `Cc1sc(NC(=O)c2ccc(C(C)(C)C)cc2)c(C(=O)O)c1C` ; growth = 68.9

// COC(=O)/C=C1/CCCCC1(C)C(=O)OC (stereo unspecified) : growth value = 102

Lookup result for `CSC1=Nc2c(c(C)c(-c3ccccc3)n2CCCCl)C2=NC(=O)CN12` ; measured growth: 49.8

Noted for `C[n+]1c2ccccc2c(Nc2ccc(NS(=O)(=O)CCCCN=C(N)N)cc2)c2ccc(N)cc21` : its growth reads 33.5

According to the records, this compound `CC(=O)c1nn(-c2ccc(C)cc2)cc1C(=O)c1cc2c(ccc3ccccc32)oc1=O` displays growth of 90.5

Noted for `O=C(Nc1ccc(-n2cc(-c3ccncc3)c(-c3ccc(Cl)c(O)c3)n2)cc1)c1ccc(Cl)c(C(F)(F)F)c1` : its growth reads -5.19

Record `CC(=O)O.[In]` . Reported growth: 35.3

Reported growth ( `Cc1c(CN(C)C)cc(C(C)C)cc1C(C)C` ) = 98.7

The value of growth measured for the compound `COCC(=O)NNc1[nH]c(-c2ccc(OC)cc2)cc1C#N` turned out to be 110

According to the records, this compound `CCCCCCCCCCCCCCCCNC(=O)Nc1ccc(C)c(NC(=O)NCCCCCCCCCCCCCCCC)c1` displays growth of 109

Sure, the documented growth for `CC1(C)NC(=S)NC1=O` is 97.5

====

Reported growth values are given for each entry in this list.
tested on: M14 melanoma; assay: NCI-60 one-dose screen, 48 h (100 = growth as untreated, 0 = no growth, -100 = all killed); conditions: 10 µM unless noted
Compounds without any hit were thinned out: in the full panel of roughly 83,000, 20% have a hit.
Write it as a number; the unit % goes unstated.

                                   compound  result_unit  endpoint_result
0        CCCCN(CCC)CCCCCCCCCCN1CCCc2ccccc21            %             88.6
1  CCCCS(=O)(=O)c1cc(Nc2ccc(O)c3c2C(=O)c2ccccc2C3=O)ccc1C            %               21
2  COc1cc(/C=C/C(=O)/C=C(/C=C/c2ccc(OC(C)=O)c(OC)c2)OB(F)F)ccc1OC(C)=O            %             34.1
3              CC(=O)c1ccc2c(c1)c1ccccc1n2C            %              106
4  Cc1ccc(C(=O)Nc2ccc(CN3CCN(C)CC3)c(C(F)(F)F)c2)cc1C#Cc1cncc2ncccc12            %            -89.5
5  COc1ccc(/C=C(/C(=O)N2CCCCC2)c2cc(OC)c(OC)c(OC)c2)cc1            %            -6.93

Note to self: growth recorded for COC(=O)C(Cc1cnc[nH]1)N1CC(=O)N2[C@@H](c3ccccc3)SC[C@H]2C1=O (stereo partly specified) was 101

Entry under test: `COc1ccc(-c2cn3ccnc3c(-c3ccc4ncn(C5CCCCC5)c4c3)n2)cc1` . Its growth was 10.8

Noted for `CC(C)CCCCCOC(=O)c1ccccc1SSc1ccccc1C(=O)OCCCCCC(C)C` : its growth reads 104

Field growth (entry `C=C(NC(=O)[C@H](C(C)C)N(C)c1cccc2[nH]ccc12)C(=O)OC` ) reads 94.9

Value of measured growth for the entry `CC(=O)Nc1nc(C)c(C(=O)NNS(=O)(=O)c2ccccc2)s1` : 97.6

// recorded growth for `N=C(N)c1ccc(-c2ccc(-c3ccc(F)cc3)s2)cc1` : -83.1

Sure, the documented growth for `CSc1nc(N)n2nccc2n1` is 101

Per the record, `COc1ccc(C(=O)NCCNc2nccc(-c3c(-c4ccc(F)cc4)nc4sccn34)n2)cc1` has growth of 55.6

// recorded growth for `CCCCCCCCCCCCc1ccc([N+](CC)(CC)CC)cc1` : 32.5

growth recorded for this compound, `COc1ccc(/C=C2\SC(=O)N(Cc3cc(=O)oc4ccc(OC)cc34)C2=O)cc1` , is 92.7

Form: compound = `O=C(NCCNCCO)c1cc([N+](=O)[O-])cc([N+](=O)[O-])c1O` ; growth = 102

GET /value?item= `CCOc1nc(-c2ccccc2)cc2c(O)c(C(=O)N/N=C/c3ccccc3O)[nH]c(=O)c12` &field=growth returns 101

Consider `c1ccc(Nc2ncc3c(n2)-c2cccn2CC3)cc1` . Its measured growth is 91.7

The compound listed as `O=CN/N=C/c1ccc(Cl)c([N+](=O)[O-])c1` has a reported growth of 29

Record `CC(C)OC(=O)c1ccc2n1CCCc1cnc(Nc3ccccc3)nc1-2` , field growth: 89.6

====

Test system: HOP-62 NSCLC
Assay: NCI-60 one-dose screen, 48 h
Conditions: 10 µM unless noted
Description: Growth inhibition of the HOP-62 human Non-Small Cell Lung tumor cell line is measured as a screen for anti-cancer activity. Cells are grown in 96 well plates and exposed to the test compound for 48 hours. Compounds are tested at a single concentration, which is 10^-5 M for most compounds. The reported endpoint is percent growth (GI% or GIPRCNT), where numbers from 0 - 100% represent growth inhibition, and numbers from -100% - 0 represent cell death. […]
This is part of a sample that, as a whole, favours compounds with a hit. Of some 83,000 tested, about 20% had one in any assay. Activity calls are given as the source filed them. Rule for the calls: active = growth percent below 10; inactive = the rest.
Please reply with one of these outcomes: class 1 for active, class 0 for inactive

Study these solved cases before continuing.
>>> print(df.to_string())
                                   compound  group_label
0  Cc1ncc(C(=O)Nc2ccc(CN3CCN(C)CC3)c(C(F)(F)F)c2)cc1C#Cc1c(N)ncc2ccc(F)cc12      class 0
1  CCCCCCCCCCN1CC2CCCCC2C1 (stereo not drawn)      class 0
2       CCCCCCCCCCCCOC(=O)/C=C\C(=O)NC(N)=O      class 0
3                      Cn1c2ccccc2c2ccccc21      class 0
4  CSCc1ncc(-c2ccc(C(F)(F)F)cc2)c(NC2CCCCCC2)n1      class 0

Prompt: How did this test come out for `N#Cc1ccc(OCc2nc(N)nc(N)c2-c2ccc(Cl)c(Cl)c2)cc1` ?
Response: class 1

Prompt: Query: recorded result category for `CCN(CC)CCNc1ncnc2c1cnn2-c1ccc(Cl)cc1` in this test
Response: class 0

Prompt: // outcome(item) with item = `Cc1ncc(C(=O)Nc2ccc(CN3CCN(C)CC3)c(C(F)(F)F)c2)cc1C#Cc1c(N)ncc2ccccc12`
Response: class 1

Prompt: Could you check what this test reported for `CC(C)(C)OC(=O)N1C/C(=C\c2ccccc2)C(=O)/C(=C/c2ccccc2)C1` ?
Response: class 0

Prompt: Call for entry C=CCC(CCC(CC=C)C(=O)OCC)C(=O)OCC (stereo not drawn) :
Response: class 0

Prompt: Per the records of this test, what outcome belongs to `COc1cc(/C=C/C(=O)/C=C(/C=C/c2ccc(OC(C)=O)c(OC)c2)OB(F)F)ccc1OC(C)=O` ?
Response: class 0

Prompt: Can you look up the reported call for `COc1ccc2cnc(N)c(C#Cc3cc(C(=O)Nc4ccc(CN5CCN(C)CC5)c(C(F)(F)F)c4)cnc3C)c2c1` for me?
Response: class 0

Prompt: Lab log entry: `O=C(NC(=S)NNC(=S)NNc1ccccc1)c1ccccc1` — outcome as called in the assay?
Response: class 0

Prompt: Given `CCCCN(CCCC)CCCNc1c2c(nc3ccc(Cl)cc13)CCCC2` , state the outcome it received in this test.
Response: class 0

Prompt: Record request — test call for `O=C(/C=C/c1ccc(Cl)cc1)c1ccc(Cl)cc1`
Response: class 0

Prompt: Dear colleague, could you share the recorded outcome for `N#Cc1c2cccnc2c2nnc3cc(Cl)c(Cl)cc3n12` when you have a moment?
Response: class 0

Prompt: Please state the recorded outcome for this compound: `COc1ccc(C(=O)NCCNc2nccc(-c3c(-c4ccc(F)cc4)nc4sccn34)n2)cc1`
Response: class 0

Prompt: # outcome recorded in this test, key = `CCCCS(=O)(=O)c1cc(Nc2ccc(O)c3c2C(=O)c2ccccc2C3=O)ccc1C`
Response: class 0

Prompt: Which outcome was assigned to CCS(=O)(=O)N[C@@H]1O[C@H](COC(C)=O)C(OC(C)=O)[C@H](OC(C)=O)C1OC(C)=O (stereo partly drawn) in this test?
Response: class 0

Prompt: Per the assay record, what outcome was assigned to `C[C@]12C=CC(=O)C=C1[C@@H](F)C[C@@H]1[C@@H]2[C@@H](O)C[C@@]2(C)[C@H]1CC[C@]2(O)C(=O)CO` ?
Response: class 0

Prompt: How did this test come out for `N=C(c1ccccc1)N(Cc1ccccc1)Cc1ccccc1` ?
Response: class 0

Prompt: Per the assay record, what outcome was assigned to `NCCCOc1cc(Cl)ccc1NC(=O)c1cc2ccccc2cc1OCCCN` ?
Response: class 1

Prompt: What did this assay record as the result for `C=CN(C)S(C)(=O)=O` ?
Response: class 0

Prompt: Recorded call for `O=CN/N=C/c1ccc(Cl)c([N+](=O)[O-])c1` ?
Response: class 0

Prompt: Returns: the outcome recorded for `O=C(Nc1ccc(Cl)c(Cl)c1)O/N=C\c1c(Cl)ccc([N+](=O)[O-])c1Cl` in this assay.
Response: class 1

Prompt: Please state the recorded outcome for this compound: `Cc1cc2cn3c4ccc(O)cc4nc(N)c3c2cc1C`
Response: class 0

Prompt: # lookup: test call for `O=C(CCl)NC1c2ccccc2Oc2ccccc21`
Response: class 0

Prompt: What classification did COc1ccc2cc(C(C)C(=O)Nc3ccc(S(=O)(=O)Nc4cc(C)on4)cc3)ccc2c1 (stereo not drawn) end up with in this test?
Response: class 0

Prompt: Lab log entry: `O=C(Nc1ccc(-n2cc(-c3ccncc3)c(-c3ccc(Cl)c(O)c3)n2)cc1)c1cc(Cl)cc(Cl)c1` — outcome as called in the assay?
Response: class 0

Prompt: How did this test come out for `CC1(C)NC(=S)NC1=O` ?
Response: class 0

Prompt: What is the recorded call for this compound in the test? `CC(=O)Nc1nc(C)c(C(=O)N/N=C/N2CCCCC2)s1`
Response: class 1

Prompt: What call does the record list for `Cc1ccc(C(=O)Nc2ccc(CN3CCN(C)CC3)c(C(F)(F)F)c2)cc1C#Cc1cncc2ncccc12` ?
Response: class 1

These measurements were taken from PubChem BioAssay (NCI).
